Property: pKd; scope: individual compounds
biological target: recombinant human galectin-1 (Homo sapiens); experiment: SPR (BIAcore) equilibrium binding to immobilized galectin-1; conditions: SPR steady state affinity fit, Table I; read-out: Galectin-1 binding, KD
Sequence (P09382 whole entry): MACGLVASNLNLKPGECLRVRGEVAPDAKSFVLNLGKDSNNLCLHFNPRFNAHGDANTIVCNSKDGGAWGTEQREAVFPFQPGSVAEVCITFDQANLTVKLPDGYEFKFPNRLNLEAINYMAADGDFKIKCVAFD
FYI, pKd means -log10 of a concentration in mol per litre.

These recorded examples may help you get a feel for the data.
Give the measured pKd of CC(C)C(NCC(=O)C(O)C(OC1OC(CO)C(O)C(O)C1O)C(O)CO)C(=O)O (stereo not shown) . 3.80

Give the measured pKd of O=C(O)CNCC(=O)C(O)C(OC1OC(CO)C(O)C(O)C1O)C(O)CO (stereo not shown) . 3.99

Give the measured pKd of CSCCC(NCC(=O)C(O)C(OC1OC(CO)C(O)C(O)C1O)C(O)CO)C(=O)O (stereo not shown) . 3.90

Give the measured pKd of CCC(C)C(NCC(=O)C(O)C(OC1OC(CO)C(O)C(O)C1O)C(O)CO)C(=O)O (stereo not shown) . 3.89

Give the measured pKd of O=C(O)C(Cc1ccccc1)NCC(=O)C(O)C(OC1OC(CO)C(O)C(O)C1O)C(O)CO (stereo not shown) . 3.70

Give the measured pKd of CC(NCC(=O)C(O)C(OC1OC(CO)C(O)C(O)C1O)C(O)CO)C(=O)O [Lactulose-L-alanine] . 3.82

Would you kindly look at the next entry?
Give the measured pKd of CC(NCC(=O)C(O)C(OC1OC(CO)C(O)C(O)C1O)C(O)CO)C(=O)O [Lactulose-D-alanine] . 3.88
